- TESTED_SYSTEM: CCR2 (Homo sapiens, UniProt P41597)
- Construct: expressed in transfected cells
- Sequence (P41597 whole entry, species assumed): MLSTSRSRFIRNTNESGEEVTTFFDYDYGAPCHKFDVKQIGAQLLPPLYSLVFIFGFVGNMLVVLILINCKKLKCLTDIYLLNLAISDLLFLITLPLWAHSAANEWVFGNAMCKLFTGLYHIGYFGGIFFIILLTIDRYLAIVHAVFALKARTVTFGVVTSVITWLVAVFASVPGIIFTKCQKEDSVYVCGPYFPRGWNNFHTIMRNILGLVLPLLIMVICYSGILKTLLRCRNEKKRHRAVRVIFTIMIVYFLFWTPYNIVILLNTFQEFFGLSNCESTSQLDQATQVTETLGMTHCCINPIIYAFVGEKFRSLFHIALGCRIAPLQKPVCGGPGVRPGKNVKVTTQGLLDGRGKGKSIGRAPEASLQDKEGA
- MEASUREMENT_PROTOCOL: compound-induced calcium activity on the FLIPR Tetra in HEK-Gqi5 cells stably expressing CCR2
- Assay type: cell-based
- STATED_CONDITIONS: HEK-Gqi5 cells stably expressing CCR2; calcium activity, FLIPR Tetra
PROPERTY_NAME: CCR2 ANTAGONISM (%)
Quick note: unit goes after the number.

O=S(=O)(Nc1cc(Cl)ccc1/C(Cc1ccccc1)=N\O)c1cc2ccccc2o1	72%
COC(=O)c1ccc(Cl)cc1NS(=O)(=O)c1cc2ccccc2o1	95%

# context switch: different molecule, same CCR2 ANTAGONISM (%)
The recorded CCR2 ANTAGONISM (%) for O=S(=O)(Nc1cc(Cl)ccc1[S+]([O-])c1ccccc1)c1cc2ccccc2o1 (stereo not drawn) is 105%

====

- TESTED_SYSTEM: CCR2 (Homo sapiens, UniProt P41597)
- Construct: expressed in transfected cells
- MEASUREMENT_PROTOCOL: compound-induced calcium activity on the FLIPR Tetra in HEK-Gqi5 cells stably expressing CCR2
- Type: cell-based
- STATED_CONDITIONS: HEK-Gqi5 cells stably expressing CCR2; calcium activity, FLIPR Tetra; read-out: CCR2 IC50
Known IC50 of a selection of compounds
Use nM as the unit, but write only the number.

Some entries whose results are on file:
N#Cc1ccc(Cl)cc1NS(=O)(=O)c1cc2ccccc2o1 [Compound 16]	409
Cc1ccc(Cl)cc1NS(=O)(=O)c1cc2ccccc2o1 [Compound 2]	359

# context switch: different compound, same IC50
The recorded IC50 for O=S(=O)(Nc1cc(Cl)ccc1Sc1ccccc1)c1cc2ccccc2o1 [Compound 12] is 124

====

- TESTED_SYSTEM: CCR2 (Homo sapiens)
- Construct: expressed in transfected cells
- MEASUREMENT_PROTOCOL: compound-induced calcium activity on the FLIPR Tetra in HEK-Gqi5 cells stably expressing CCR2
- Format: cell-based
- STATED_CONDITIONS: HEK-Gqi5 cells stably expressing CCR2; calcium activity, FLIPR Tetra; read-out: CCR2 IC50
PROPERTY_NAME: IC50 (µM)
Use µM as the unit, but write only the number.

Some entries whose results are on file:
Cc1ccc([S+]([O-])c2ccccc2)c(NS(=O)(=O)c2cc3ccccc3o2)c1 (stereo not drawn)	2.88
COc1ccc(Cl)cc1NS(=O)(=O)c1cc2ccccc2o1	0.512

# context switch: different compound, same IC50
The recorded IC50 for `O=C(c1ccc(Cl)cc1NS(=O)(=O)c1cc2ccccc2o1)N1CCOCC1` is 0.569

From: patent US8927544B2
